STUDY TARGET: HLA-B*15:01 (human)
EXPERIMENT: radioligand competition, purified MHC
Kindly state IC50 for each of the entries shown.
One number for each entry, in µM.

GPMVLRGLIT (modifications not checked) [… (SEQ ID NO: 6)]: 8.55
HADQLTPTW (modifications not checked) [… (SEQ ID NO: 35)]: 13.4
LEDKAFQL (modifications not checked) [LEDKAFQL (SEQ ID NO: 10)]: 14.7
EEFEPSTQYEY (modifications not checked) [… (SEQ ID NO: 20)]: 0.078

Please give IC50 for each item listed below.
1. EIKESVQTF (modifications not checked) [… (SEQ ID NO: 15)]
2. GLITLSYHL (modifications not checked) [… (SEQ ID NO: 5)]
3. VGYLQPRTF (modifications not checked) [… (SEQ ID NO: 39)]

1. 4.93
2. 1.5
3. 0.777
